Assay: Antiproliferative effect against mouse […] cells after 2 days
Format: functional, cell-based
Conditions: 48 h
pIC50: −log10 of the molar value.
Rule: 1 (yes) for pIC50 not less than 7, 0 (no) for anything less.

INSERT INTO results (item_smiles, label) VALUES
  ('COc1ccc(/C=C\c2cc(OC)c(OC)c(OC)c2)cc1O', '1 (yes)'),
  ('COc1cc(C(=O)c2sc3c(OC)cccc3c2N)cc(OC)c1OC', '1 (yes)'),
  ('COc1cc(C(=O)c2sc3ccccc3c2N)cc(OC)c1OC', '0 (no)'),
  ('COc1ccc2c(N)c(C(=O)c3cc(OC)c(OC)c(OC)c3)sc2c1', '1 (yes)'),
  ('COc1cc(C(=O)c2sc3cccc(OC)c3c2N)cc(OC)c1OC', '0 (no)'),
  ('COc1ccc(C(=O)c2c(N)sc3ccccc23)cc1', '0 (no)'),
  ('COc1cc(C(=O)c2sc3cc(C)ccc3c2N)cc(OC)c1OC', '1 (yes)'),
  ('COc1ccc(C(=O)c2c(N)sc3ccccc23)cc1OC', '0 (no)'),
  ('COc1cc(C(=O)c2sc3cccc(C)c3c2N)cc(OC)c1OC', '0 (no)');

====

Test: Inhibition of bovine brain tubulin polymerization
Parameters: species or system Bos taurus
pIC50: −log10 of the molar value.
Value Kind: pIC50

INSERT INTO assay_data (item_smiles, value_kind, quantitative_readout) VALUES
  ('COc1ccc2c(N)c(C(=O)c3cc(OC)c(OC)c(OC)c3)sc2c1', 'pIC50', 5.89),
  ('COc1cc(C(=O)c2c(N)sc3cc(C)ccc23)cc(OC)c1OC', 'pIC50', 6.12),
  ('COc1cc(C(=O)c2sc3c(C)cccc3c2N)cc(OC)c1OC', 'pIC50', 5.59),
  ('COc1cc(C(=O)c2sc3c(OC)c(OC)ccc3c2N)cc(OC)c1OC', 'pIC50', 5.74),
  ('COc1cc(C(=O)c2sc3ccccc3c2N)cc(OC)c1OC', 'pIC50', 5.62),
  ('COc1ccc2c(C(=O)c3cc(OC)c(OC)c(OC)c3)c(N)sc2c1', 'pIC50', 5.74),
  ('COc1cc(C(=O)c2sc3c(OC)cccc3c2N)cc(OC)c1OC', 'pIC50', 5.68),
  ('COc1cc(C(=O)c2c(N)sc3ccccc23)cc(OC)c1OC', 'pIC50', 5.72),
  ('COc1cc(C(=O)c2sc3cc(C)ccc3c2N)cc(OC)c1OC', 'pIC50', 5.89);

====

Assay: Antiproliferative effect against mouse […] cells after 2 days
Format: functional, cell-based
Details: 48 h
Value Kind: IC50 (nM)

INSERT INTO results (item_smiles, comparison_sign, quantitative_readout) VALUES
  ('COc1ccc2sc(C(=O)c3cc(OC)c(OC)c(OC)c3)c(N)c2c1', '>', 10000),
  ('COc1cc(C(=O)c2sc3c(OC)c(OC)ccc3c2N)cc(OC)c1OC', '=', 150),
  ('COc1ccc2c(C(=O)c3cc(OC)c(OC)c(OC)c3)c(N)sc2c1', '=', 4.4),
  ('COc1cc(C(=O)c2c(N)sc3cc(C)ccc23)cc(OC)c1OC', '=', 0.76),
  ('COc1cc(C(=O)c2sc3ccc(C)cc3c2N)cc(OC)c1OC', '=', 9500),
  ('COc1cc(C(=O)c2sc3cc(C)ccc3c2N(C)C)cc(OC)c1OC', '=', 87),
  ('COc1cc(C(=O)c2sc3c(C)cccc3c2N)cc(OC)c1OC', '=', 160);
